target: α-synuclein fibrils (Homo sapiens, UniProt P37840); assay: ThT competitive binding assay with α-synuclein fibrils
readout label: log10 of Ki (log10 of the value in nM)
Hi team, quick reminder: these entries are log10 of Ki (nM).

Request: What value of measured log10 of Ki is listed for COc1ccc2c(c1)Nc1ccc([N+](=O)[O-])cc1S2 [TZ10-1-2-1, 2-methoxy-7-nitro-10H-phenothiazine] ?
Response: 1.56

Request: What value of measured log10 of Ki is listed for `COc1ccc2c(c1)Sc1cccnc1N2` ?
Response: 3.20

Request: What value of measured log10 of Ki is listed for COc1ccc2c(c1)Oc1cccc([N+](=O)[O-])c1N2 [TZ-2-54, 7-methoxy-1-nitro-10H-phenoxazine] ?
Response: 2.22

Request: What value of measured log10 of Ki is listed for `COc1cccc2c1N(C(C)=O)c1ccc(C(F)(F)F)cc1S2` ?
Response: 2.40

Request: What value of measured log10 of Ki is listed for COc1ccc2c(c1)Nc1c(cccc1[N+](=O)[O-])O2 [TZ-2-52, 8-methoxy-1-nitro-10H-phenoxazine] ?
Response: 2.08

Request: What value of measured log10 of Ki is listed for `COc1ccc2c(c1)Oc1cc([N+](=O)[O-])cnc1N2` ?
Response: 1.43

Request: What value of measured log10 of Ki is listed for COc1ccc2c(c1)Oc1cc([N+](=O)[O-])ccc1N2 [TZ-2-33, 3-methoxy-7-nitro-10H-phenoxazine] ?
Response: 1.41

Request: What value of measured log10 of Ki is listed for COc1ccc2c(c1)Nc1ccc([N+](=O)[O-])cc1O2 [TZ-2-39, 2-methoxy-7-nitro-10H-phenoxazine] ?
Response: 0.98

Request: What value of measured log10 of Ki is listed for `COc1ccc2c(c1)Sc1cc(C(F)(F)F)ccc1N2` ?
Response: 2.25

Request: What value of measured log10 of Ki is listed for COc1cccc2c1Nc1ccc([N+](=O)[O-])cc1S2 [TZ10-27-1, 1-methoxy-7-nitro-10H-phenothiazine] ?
Response: 2.53

Request: What value of measured log10 of Ki is listed for `COc1ccc2c(c1)Sc1cnccc1N2` ?
Response: 2.73

Request: What value of measured log10 of Ki is listed for `COc1ccc2c(c1)Nc1ccc(C(F)(F)F)cc1S2` ?
Response: 2.41
